# test-target: human adenosine A1 receptor (Homo sapiens)
# Sequence (P30542 whole entry): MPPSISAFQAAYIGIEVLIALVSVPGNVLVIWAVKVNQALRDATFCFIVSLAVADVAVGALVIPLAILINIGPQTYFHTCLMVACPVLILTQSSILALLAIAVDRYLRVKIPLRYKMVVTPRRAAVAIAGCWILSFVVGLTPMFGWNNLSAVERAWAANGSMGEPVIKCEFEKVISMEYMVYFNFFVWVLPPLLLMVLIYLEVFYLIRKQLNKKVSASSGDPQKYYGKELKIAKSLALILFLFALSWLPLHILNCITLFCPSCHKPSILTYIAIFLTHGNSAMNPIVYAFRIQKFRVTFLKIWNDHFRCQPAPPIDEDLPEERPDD
# experiment-notes: Yeast β-Galactosidase reporter gene assay (strain CY12660): inhibition of NECA-induced β-Galactosidase activity
# measurement-context: read-out: Al Yeast IC50; Table 7, Effect of C2-Substituent
quantity-kind: IC50 (µM)
Respond with the bare value in µM.

# input Endpoint output: IC50 of Cc1[nH]c2nc(-c3ccsc3)nc(N[C@H]3CC[C@H](O)CC3)c2c1C [Compound 704] . Value?
# output 0.297

----------
# test-target: human A2a receptor subtype (Homo sapiens, UniProt P29274)
# Sequence (P29274 whole entry): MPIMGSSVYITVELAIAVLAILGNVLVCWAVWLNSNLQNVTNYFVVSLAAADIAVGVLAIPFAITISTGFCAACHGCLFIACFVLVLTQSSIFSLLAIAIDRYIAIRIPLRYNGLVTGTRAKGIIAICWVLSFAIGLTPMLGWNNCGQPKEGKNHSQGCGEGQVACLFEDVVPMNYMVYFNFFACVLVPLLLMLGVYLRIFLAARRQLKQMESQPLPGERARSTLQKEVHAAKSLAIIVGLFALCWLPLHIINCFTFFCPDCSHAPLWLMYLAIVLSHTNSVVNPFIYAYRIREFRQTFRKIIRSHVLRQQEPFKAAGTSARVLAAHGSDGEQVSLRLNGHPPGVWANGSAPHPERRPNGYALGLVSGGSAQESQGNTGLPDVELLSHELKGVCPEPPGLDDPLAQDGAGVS
# experiment-notes: Adenosine 2a receptor subtype competition radioligand binding, [3H] CGS-21680, HEK293 membranes
# measurement-context: read-out: Binding Data Ki (nM) A2a; Table 14
quantity-kind: Ki

# input Endpoint output: Ki of CC(=O)NCCNc1nc(-c2ccccc2)nc2[nH]c(CNc3ccccc3)cc12 [Compound 1404] . Value?
# output 31 nM
